The following molecules are shown together with reported Activity values.
- procedure_summary: Metal chelating activity of compound assessed as compound-Cu2+ complex formation at 0.5 mM after 10 mins in presence of CuSO4.5H2O by complexometric indicator murexide based UV-Vis spectrophotometric analysis
- Format: physicochemical
- study_conditions: 500 µM

Some solved cases for reference:
Cl.Cl.NCC(N)CCCCNC(=O)CCn1cccc(O)c1=O (stereo unspecified): 81.17%
Cc1c(O)c(=O)ccn1CCC(=O)NCCCCC(N)CN.Cl.Cl (stereo unspecified): 91.66%
CC(C)(C)OC(=O)NCC(CCCCNC(=O)CCn1cccc(O)c1=O)NC(=O)OC(C)(C)C.Cl.Cl (stereo unspecified): 76.54%
Cl.Cl.NCC(N)CC(=O)N1CCN(C(=O)CCn2cccc(O)c2=O)CC1 (stereo unspecified): 68.5%
Cl.Cl.NCC(N)CCC(=O)NCCCn1cccc(O)c1=O (stereo unspecified): 71.22%
NCCC(=O)N[C@@H](Cc1cnc[nH]1)C(=O)O [CARNOSINE]: 5.39%
Cl.Cl.NCC(N)CCCNC(=O)CCn1cccc(O)c1=O (stereo unspecified): 73.21%
Cc1c(O)c(=O)ccn1CCCNC(=O)CCC(N)CN.Cl.Cl (stereo unspecified): 88.46%

Query string: GET /values?readout=Activity&item= COc1cc(/C=C/C(=O)NCCCCC(N)CN)ccc1O.Cl.Cl (stereo unspecified)
Result string: 42.89%

Query string: Thanks! And Cl.Cl.NCC(N)C(=O)N1CCNCC1 (stereo unspecified) ?
Result string: 40.27%

Query string: Thanks! And NCCN [ETHYLENEDIAMINE] ?
Result string: 100%

----------
- procedure_summary: Metal chelating activity of compound assessed as compound-Cu2+ complex formation at 0.05 mM after 10 mins in presence of CuSO4.5H2O by complexometric indicator murexide based UV-Vis spectrophotometric analysis
- Assay type: physicochemical
- study_conditions: 50 µM
Note to self: values exactly at 10% are MET. So Activity at or above 10% is MET, below is NOT MET.

Here's what some known entries look like.
Cc1c(O)c(=O)ccn1CCCNC(=O)CCC(N)CN.Cl.Cl (configuration not stated): MET
Cc1c(O)c(=O)ccn1CCC(=O)NCCCCC(N)CN.Cl.Cl (configuration not stated): MET
Cl.Cl.NCC(N)CCCCNC(=O)c1cc(O)c(O)c(O)c1 (configuration not stated): MET
Cl.Cl.NCC(N)CCCNC(=O)CCn1cccc(O)c1=O (configuration not stated): MET
Cl.Cl.NCC(N)C(=O)N1CCNCC1 (configuration not stated): NOT MET

Query string: Is the recorded value of Activity equal to or greater than 10% for this compound? Cl.Cl.NCC(N)CCC(=O)N1CCN(C(=O)c2cc(O)c(O)c(O)c2)CC1 (configuration not stated)
Result string: MET

Query string: Thanks! And COc1cc(/C=C/C(=O)N2CCN(C(=O)CCC(N)CN)CC2)ccc1O.Cl.Cl (configuration not stated) ?
Result string: MET

Query string: Thanks! And CC(C)(C)OC(=O)NCC(CCCCNC(=O)CCn1cccc(O)c1=O)NC(=O)OC(C)(C)C.Cl.Cl (configuration not stated) ?
Result string: MET

Query string: Thanks! And Cl.Cl.NCC(N)CCC(=O)N1CCN(C(=O)CCn2cccc(O)c2=O)CC1 (configuration not stated) ?
Result string: MET

Query string: Thanks! And NCCC(=O)N[C@@H](Cc1cnc[nH]1)C(=O)O [CARNOSINE] ?
Result string: NOT MET

Query string: Thanks! And Cl.Cl.NCC(N)CCC(=O)NCCCn1cccc(O)c1=O (configuration not stated) ?
Result string: MET

Query string: Thanks! And NCCN [ETHYLENEDIAMINE] ?
Result string: MET

Query string: Thanks! And Cl.Cl.NCC(N)CCCCNC(=O)CCn1cccc(O)c1=O (configuration not stated) ?
Result string: MET

Query string: Thanks! And Cl.Cl.NCC(N)CC(=O)N1CCN(C(=O)CCn2cccc(O)c2=O)CC1 (configuration not stated) ?
Result string: MET

Query string: Thanks! And COc1cc(/C=C/C(=O)NCCCCC(N)CN)ccc1O.Cl.Cl (configuration not stated) ?
Result string: NOT MET

Query string: Thanks! And Cl.Cl.NCC(N)CCCCNC(=O)CCn1cccc(OCc2ccccc2)c1=O (configuration not stated) ?
Result string: MET
